The origin of these recorded values is paper PMC4847003.

Tested on: 3T3 host cells
experimental.details: Host cell number in the same well of the amastigote image-based assay
Set-up: species or system mouse
measurement.parameters: read-out: 3T3 % activity highest dose; at 73.3 μM, solid sample

[
  {
    "molecule.smiles": "O=C(Nc1nc(-c2ccccn2)cs1)c1ccccc1Br",
    "unit.tag": "%",
    "cytotoxicity": 44
  }
]

----------
Tested on: 3T3 host cells
experimental.details: Host cell number in the same well of the amastigote image-based assay
Parameters: species or system mouse
measurement.parameters: read-out: Host % activity at highest dose; 3T3, at 17.2 μM, library DMSO stock

[
  {
    "compound": "COc1c(C)c2c(c(O)c1C/C=C(\\C)CCC(=O)[O-])C(=O)OC2.[Na+] [Sodium Mycophenolate, sodium mycophenolate]",
    "target.or.test.system": "3T3 host cells",
    "cytotoxicity / %": 30
  }
]
